system: 786-O renal cancer cells; assay: ATP luminescence assay (CELLTITER-GLO), 786-O cells; format: cell-based; conditions: Homo sapiens, 786-0; 786-O renal cancer cells, ATP luminescence assay; read-out: EC50
OUTCOME_MEASURE: EC50 (nM)

COMPOUND	OUTCOME_MEASURE	UNIT_OF_MEASURE	VALUE_REPORTED
COc1cccc2c1C(=O)c1c(O)c3c(c(O)c1C2=O)C[C@@](O)(C(=O)CO)C[C@@H]3O[C@H]1C[C@H](N)[C@H](O)[C@H](C)O1 [doxorubicin, reference compound]	EC50	nM	68.9
